Reference source: ChEMBL document CHEMBL1131610

MEASUREMENT_PROTOCOL: Inhibition of bovine brain Phosphatidylinositol 3-kinase
Design: species or system Bos taurus
Entries annotated with measured pIC50
// pIC50: -log10(molar conc.)

Consider the reported pIC50 for these compounds:
# CHEMICAL_SMILES, ASSAY_ENDPOINT, OBSERVED_MEASUREMENT
data = [
    ("CCCCCCCCCCCCCCCCCCOC[C@H](CCP(=O)(O)O[C@H]1[C@@H](O)[C@@H](O)[C@H](O)C[C@H]1O)OC", "pIC50", 5.28),
    ("CCCCCCCCCCCCCCCCCCOC[C@H](COP(=O)(O)O[C@H]1[C@@H](O)[C@@H](O)[C@H](O)C[C@H]1O)OC", "pIC50", 5.60),
]

Now let's try a different one.
Asked: Look up pIC50: CCCCCCCCCCCCCCCC(=O)OC[C@H](COP(=O)(O)O[C@@H]1[C@H](O)[C@@H](F)[C@@H](O)[C@H](O)[C@@H]1O)OC(=O)CCCCCCCCCCCCCCC
Given back: 4.52
